- measured on: T1, RADIL, Q96JH8
- T1 sequence (Q96JH8 971-1071, limits assumed, looked up): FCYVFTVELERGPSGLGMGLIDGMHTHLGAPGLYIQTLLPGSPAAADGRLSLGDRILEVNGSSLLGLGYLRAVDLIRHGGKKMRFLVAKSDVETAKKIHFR
- assay text: holdup assay
- Design: key: below the threshold = too weak to quantify, mostly under pKd 3.1 to 4
- protocol conditions: plain residues with an end cap or a label only (N-terminal biotin on a linker: ado-ado)
property label: pKd

LKDDELKTKL [SLCO1A2, P46721]    below the threshold
EIPAQSPTCV [FZD10, Q9ULW2]    4.47
DTKNYKQTSV [CRIPT, Q9P021]    below the threshold
DDASLPVSDV [PLEKHA1, Q9HB21]    3.59
TRKRSGEAAV [PFKM, P08237]    below the threshold

Prompt line: Looking for the measured pKd of SRSVVESDEL [MYPN, Q86TC9] , can you help?
Response line: below the threshold

Prompt line: Now consider ARGPPRESEV [FAM110D, Q8TAY7] and answer again.
Response line: below the threshold

Prompt line: Now consider LESTTVGTSV [KARS1, Q15046] and answer again.
Response line: below the threshold
